Each recorded value in this set is attributed to PubChem BioAssay (NCI).

Test system: CCRF-CEM leukemia
Assay: NCI tumour cell line growth inhibition, 48 h
Measure name: TGI

• Cc1n[nH]c(=O)n1Nc1ccccc1 = > 100 µM
• CCOC(CN(C)C(=O)Nc1ccc(Cl)c(Cl)c1)OCC = > 10 µM
• O=S(=O)(Nc1nccs1)c1ccc([As](=O)(O)O)cc1 = > 100 µM

---

System: SK-MEL-2 melanoma
Test: NCI tumour cell line growth inhibition, 48 h
Measured TGI accompanies every entry in the list below.
Measure name: TGI

- Cc1ccc(C(=O)C(c2nc3n(c2O)C(=N)N=N3)c2nc3n(c2O)C(=N)N=N3)cc1 (centres undefined): > 100 µM
- Clc1ccc(OCc2nnc3sc(SSc4nn5c(COc6ccc(Cl)cc6)nnc5s4)nn23)cc1: > 100 µM
- NS(=O)(=O)c1ccc(N=Nc2c(O)[nH]c3ccc(C(=O)NCCc4cnc[nH]4)cc23)cc1: > 25 µM
- C=C1C(=O)O[C@@H]2C[C@@H]1CC[C@]1(C)O[C@H]1CC/C(C)=C/CC[C@@]2(C)O: > 100 µM
- O=C(O)c1ccc(NCc2nc3ccccc3[nH]2)cc1: > 100 µM
- COc1ccc(/C(=C/c2ccc3ccccc3c2)c2nn[nH]n2)cc1OC: > 100 µM
- CC1(CO)C(O)CCC2(C)C1C(O)CC1CC3CC12CCC3(O)CO (centres undefined): > 225 µM
- CC(C)(C)C(O)CC(O)(C(F)(F)F)C(F)(F)F (centres undefined): > 100 µM
- CC1=NNC(=O)C1C1CC(c2c[nH]c3ccccc23)=NN(c2ccccc2)C1=O (centres undefined): > 100 µM
